- Protocol Details: chemical genetic growth profiling, strain panel (AID 1159580);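 also: tested at 20 µM; growth read once vehicle control cultures reached saturation at 30 °C; 1 = growth at the plate median or of vehicle wells; lower values mean less growth of the strain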
- Conditions Used: S. cerevisiae deletion strains, growth OD, locus YDL035C, strain GPR1, hits give low values
About 2,000 (36%) of roughly 5,500 compounds were called active. Another 18% or so got no clear call; they are omitted. Some of the results follow.
Reported normalized growth values follow for various compounds
Result Type: normalized growth

# Compound, Value Reported
records = [
    ("COC(=O)CCCOc1ccc(Cl)cc1Cl", 1),
    ("COc1ccc(C(=O)N2CCCC2=O)cc1", 0.984),
    ("C[C@@H](N)[C@@H](O)c1ccccc1", 1),
    ("COc1ccc(C(=O)CC(=O)c2ccc(C(C)(C)C)cc2)cc1", 0.954),
    ("C[C@@H]1O[C@@H](O[C@H]2C[C@@H](O)[C@]3(CO)C4C(CC[C@]3(O)C2)[C@@]2(O)CC[C@H](C3=CC(=O)OC3)[C@@]2(C)C[C@H]4O)[C@H](O)[C@H](O)[C@H]1O (stereo not given in full)", 1.05),
    ("C=C1C2CC[C@@]3(C)[C@H](c4ccoc4)OC(=O)C[C@]13O[C@H]1CC(=O)C(C)(C)C(CC(=O)OC)[C@@]21C (stereo not given in full)", 0.984),
    ("CC1CCC2(OC1)OC1CC3C4CCC5C[C@@H](O)CCC5(C)C4=CCC3(C)C1[C@@H]2C (stereo not given in full)", 1.01),
    ("COC(=O)c1c(C)cc(OC(=O)c2c(C)c(Cl)c(O)c(C=O)c2O)c(C)c1O", 1.01),
    ("COC(=O)CCC(C)[C@H]1CCC2C3C(C[C@H](O)[C@@]21C)[C@@]1(C)CC[C@@H](O)C[C@H]1C[C@H]3O (stereo not given in full)", 1.01),
    ("CC(=O)Nc1ccccc1", 0.987),
    ("CN(C(=O)CN(CCO)CC(=O)N(C)C(C)(C)Cc1ccccc1)C(C)(C)Cc1ccccc1", 0.954),
    ("CCCC(CCC)C(=O)O", 1),
    ("O=c1cc(-c2ccccc2)oc2cc(O)cc(O)c12", 0.919),
    ("C=C[C@H]1CN2CC[C@H]1C[C@@H]2[C@H](O)c1ccnc2ccccc12", 1.02),
    ("O=c1cc(-c2ccccc2)oc2c(O)c(O)ccc12", 0.863),
    ("C[C@H](CCC(=O)O)[C@H]1CCC2C3C(CC[C@@]21C)[C@@]1(C)CC[C@@H](O)C[C@H]1C[C@@H]3O (stereo not given in full)", 0.992),
    ("CC12CC3CC(C)(C1)CC(N)(C3)C2", 0.999),
    ("COc1cc([C@@H]2c3cc4c(cc3[C@H](OC(C)=O)[C@H]3COC(=O)[C@@H]23)OCO4)cc(OC)c1OC", 1.02),
    ("O=C(O)CCCOc1ccc(Cl)cc1Cl", 1.01),
    ("C[C@H](CCC(=O)O)[C@H]1CCC2C3C(CC[C@@]21C)[C@@]1(C)CC[C@@H](O)C[C@H]1C[C@H]3O (stereo not given in full)", 0.985),
    ("O=c1cc(-c2cc(O)c(O)c(O)c2)oc2cc(O)cc(O)c12", 0.992),
    ("C=C1C2CCC3(C)C(c4ccoc4)OC(=O)CC13OC1CC(OC(C)=O)C(C)(C)C(CC(=O)OC)C12C (stereo not given)", 0.993),
    ("CC(=O)O[C@H]1CC[C@]2(C)C3=CC(=O)[C@@]4(C)C(C[C@@H]5OC6(OCC(C)CC6Br)[C@@H](C)[C@@H]54)C3CC[C@H]2C1 (stereo not given in full)", 1.01),
    ("CC(=O)OCC(=O)[C@@]1(O)[C@H](OC(C)=O)CC2C3CCC4=CC(=O)C=C[C@]4(C)[C@@]3(F)[C@@H](O)C[C@@]21C (stereo not given in full)", 0.973),
    ("C[C@H](N)[C@H](O)c1ccccc1", 1.01),
    ("CC(CCC(=O)O)[C@H]1CCC2C3C(C[C@H](O)[C@@]21C)[C@@]1(C)CC[C@@H](O)C[C@H]1C[C@H]3O (stereo not given in full)", 1.03),
    ("C[C@@H]1CC2C3C[C@H](F)C4=CC(=O)C=C[C@]4(C)[C@@]3(F)[C@@H](O)C[C@]2(C)[C@@]1(O)C(=O)COC(=O)C(C)(C)C (stereo not given in full)", 0.982),
    ("CN(C)C(=O)Nc1ccc(Cl)c(Cl)c1", 0.983),
    ("CC(CCC(=O)O)[C@H]1CCC2C3CC[C@@H]4C[C@H](O)CC[C@]4(C)C3C[C@H](O)[C@@]21C (stereo not given in full)", 0.998),
    ("COC(=O)CCC(C)C1CCC2C3CC[C@@H]4C[C@H](O)CC[C@]4(C)C3C[C@H](O)[C@]12C (stereo not given in full)", 0.989),
    ("CN(C)CCC(c1ccc(Br)cc1)c1ccccn1 (stereo not given)", 0.991),
    ("CN(C)N=Nc1nc[nH]c1C(N)=O", 1.02),
    ("CN(C)CCOC(=O)C(c1ccccc1)C1(O)CCCC1 (stereo not given)", 1.01),
    ("C=C1[C@H]2CC[C@@]3(C)[C@H](c4ccoc4)OC(=O)C[C@]13O[C@H]1C[C@H](O)C(C)(C)[C@H](CC(=O)OC)[C@]12C", 1),
    ("COC(=O)c1c(C)cc(OC(=O)c2c(C)cc(O)c(C=O)c2O)c(C)c1O", 0.994),
    ("CCCC(C(=O)OCCN(CC)CC)(c1ccccc1)c1ccccc1", 0.99),
    ("O=C(Nc1ccccc1)c1ccccc1O", 0.954),
    ("NCC(CC(=O)O)c1ccc(Cl)cc1 (stereo not given)", 1.05),
    ("Cc1cc(=O)oc2c(O)c(O)ccc12", 1.01),
    ("c1ccc2c(c1)CN1CCCC1=N2", 1.03),
]

----------
- Protocol Details: chemical genetic growth profiling, strain panel (AID 1159580);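 also: tested at 20 µM; growth read once vehicle control cultures reached saturation at 30 °C; 1 = growth at the plate median or of vehicle wells; lower values mean less growth of the strain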
- Conditions Used: S. cerevisiae deletion strains, growth OD, locus YAL030W, strain snc1, hits give low values
The campaign covered roughly 5,500 compounds. About 2,000 (36%) were called active. Inconclusive results (about 18%) are left out. Some of the results follow.
Lab note: anything with normalized growth below 1 is marked 1 (yes); values at 1 or higher are marked 0 (no).

# Compound, Assigned Class
data = [
    ("CNCCCN1c2ccccc2CCc2ccccc21", "0 (no)"),
    ("CN(CCC(N)CC(=O)N[C@H]1C=CC(n2ccc(N)nc2=O)O[C@@H]1C(=O)O)C(=N)N (stereo not given in full)", "1 (yes)"),
]

----------
- Protocol Details: chemical genetic growth profiling, strain panel (AID 1159580);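 also: tested at 20 µM; growth read once vehicle control cultures reached saturation at 30 °C; 1 = growth at the plate median or of vehicle wells; lower values mean less growth of the strain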
- Conditions Used: S. cerevisiae deletion strains, growth OD, locus YJL092W, strain hpr5, hits give low values
In all, about 5,500 compounds went through this assay and about 2,000 (36%) were called active. Not shown: some 18% with an inconclusive outcome. The list shows a part of the results.
Result Type: normalized growth

# Compound, Result Type, Value Reported
records = [
    ("CC[C@H](CCC(C)[C@H]1CCC2C3CCC4C[C@@H](O)CC[C@]4(C)C3CC[C@@]21C)C(C)C (stereo not given in full)", "normalized growth", 0.982),
    ("CC(CCC(=O)O)[C@H]1CCC2C3C(C[C@H](O)[C@@]21C)[C@@]1(C)CC[C@@H](O)C[C@H]1C[C@H]3O (stereo not given in full)", "normalized growth", 1.01),
    ("O=c1[nH]cnc2[nH]ncc12", "normalized growth", 1.01),
    ("CC(C)CCCC(C)C1CCC2C3CC[C@H]4CCCC[C@]4(C)C3CC[C@]12C (stereo not given in full)", "normalized growth", 1.01),
    ("CC(CCC(=O)O)[C@H]1CCC2C3C[C@H](O)[C@@H]4C[C@H](O)CC[C@]4(C)C3CC[C@@]21C (stereo not given in full)", "normalized growth", 0.99),
]

----------
- Protocol Details: chemical genetic growth profiling, strain panel (AID 1159580);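 also: tested at 20 µM; growth read once vehicle control cultures reached saturation at 30 °C; 1 = growth at the plate median or of vehicle wells; lower values mean less growth of the strain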
- Conditions Used: S. cerevisiae deletion strains, growth OD, locus YNL222W, strain SSU72, hits give low values
Out of some 5,500 compounds screened, about 2,000 (36%) were called active. Roughly 18% stayed inconclusive and do not appear here. The list shows a part of the results.
Result Type: normalized growth

# Structure Smiles, Value Reported
measured = [
    ("CNC(=O)n1nc(C)c(Cc2csc3ccc(Cl)cc23)c1C", 0.992),
    ("S=C(Nc1cc(Cl)c(Cl)cc1Cl)Nc1ccccc1Br", 0.97),
    ("COc1ccc(C(=O)NCc2csc3ccc(Cl)cc23)cc1OC", 0.972),
    ("C/C(=N/Nc1ccccc1)c1cc(Cl)cc(Cl)c1O", 0.961),
    ("O=C1/C(=C/c2cccs2)COc2ccccc21", 0.91),
]

src = PubChem BioAssay AID1159580
